# method_description: Pharmacokinetics study of KDG-0388 in male CD1 mice (Example 2)
# Type: in vivo
# condition_parameters: mouse, plasma; male CD1 mice, 200 mg/kg PO
endpoint_label: Cmax (ng/mL)
Output spec: scalar in ng/mL, unitless text.

Which Cmax reading was recorded for the molecule Cc1n[nH]c2c1C(c1cc(C#C[C@H]3C[C@@H](NC(=O)OC(C)(C)C)C3)cc(CO)c1)(C(C)C)C(C#N)=C(N)O2 (stereo partly shown) ?
719

* * *

# method_description: Pharmacokinetics study of KDG-0271 in male CD1 mice (Example 3)
# Format: in vivo
# condition_parameters: male, mouse, plasma; CD1 mice, 1 mg/kg IV
endpoint_label: AUC(0-t) (µg·h/mL)
Output spec: scalar in µg·h/mL, unitless text.

Which AUC(0-t) reading was recorded for the compound Cc1n[nH]c2c1C(c1cc(C#CC3CN(C(=O)OC(C)(C)C)C3)cc(CO)c1)(C(C)C)C(C#N)=C(N)O2 (stereo not shown) ?
0.0993

* * *

# method_description: Mouse liver microsome assay (metabolic stability)
# Format: in vitro ADME
# condition_parameters: mouse liver microsomes, in vitro half-life
Counter-ions that a name gives are not always drawn.
So I've got a bunch of compounds here, and I need their half-life at 2 µM values.

Which half-life at 2 µM reading was recorded for the compound Cc1n[nH]c2c1C(c1cc(C#C[C@H]3CC[C@H](NC(=O)OC(C)(C)C)CC3)cc(CO)c1)(C(C)C)C(C#N)=C(N)O2 (some centres unmarked) [KDG-0320, hydrochloride] ?
≥ 20 min

Next compound up: [2H]C([2H])(O)c1cc(C#CC2CN(C(=O)OC(C)(C)C)C2)cc(C2(C(C)C)C(C#N)=C(N)Oc3[nH]nc(C)c32)c1 (centres unmarked) [KDG-0413]
10 to 20 min

Next compound up: Cc1n[nH]c2c1C(c1cc(C#CC3CN(C(=O)NC(C)(C)C)C3)cc(CO)c1)(C(C)C)C(C#N)=C(N)O2 (centres unmarked) [KDG-0412]
10 to 20 min

Next compound up: Cc1n[nH]c2c1C(c1cc(C#CC3(C)CN(C(=O)OC(C)(C)C)C3)cc(CO)c1)(C(C)C)C(C#N)=C(N)O2 (centres unmarked) [KDG-0300]
5 to 10 min

Next compound up: Cc1n[nH]c2c1C(c1cc(C#CC34CC(NC(=O)OC(C)(C)C)(C3)C4)cc(CO)c1)(C(C)C)C(C#N)=C(N)O2 (centres unmarked) [KDG-0502]
≥ 20 min

Next compound up: Cc1n[nH]c2c1C(c1cc(C#CC3CCCN3C(=O)OC(C)(C)C)cc(CO)c1)(C(C)C)C(C#N)=C(N)O2 (centres unmarked) [KDG-0280]
< 5 min

Next compound up: Cc1n[nH]c2c1C(c1cc(C#C[C@H]3C[C@H](C(C)(C)O)C3)cc(CO)c1)(C(C)C)C(C#N)=C(N)O2 (some centres unmarked) [KDG-0258]
< 5 min

Next compound up: Cc1n[nH]c2c1C(c1cc(C#N)cc(C#CC3CN(C(=O)OC(C)(C)C)C3)c1)(C(C)C)C(C#N)=C(N)O2 (centres unmarked) [KDG-0543]
10 to 20 min

Next compound up: Cc1n[nH]c2c1C(c1cc(C#C[C@H]3C[C@H](C(=O)OC(C)(C)C)C3)cc(CO)c1)(C(C)C)C(C#N)=C(N)O2 (some centres unmarked) [KDG-0393]
< 5 min

Next compound up: Cc1n[nH]c2c1C(c1cc(C#CC3(C)CCN(C(=O)OC(C)(C)C)CC3)cc(CO)c1)(C(C)C)C(C#N)=C(N)O2 (centres unmarked) [KDG-0296]
5 to 10 min

Next compound up: Cc1n[nH]c2c1C(c1cc(C#C[C@H]3CC[C@H](NC(=O)OC(C)(C)C)C3)cc(CO)c1)(C(C)C)C(C#N)=C(N)O2 (some centres unmarked) [KDG-0506]
5 to 10 min

Next compound up: Cc1n[nH]c2c1C(c1cc(C#C[C@H]3C[C@@H](NC(=O)OC(C)(C)C)C3)cc(CO)c1)(C(C)C)C(C#N)=C(N)O2 (some centres unmarked) [KDG-0388]
≥ 20 min

Next compound up: Cc1nnc(N2CC(C#Cc3cc(CO)cc(C4(C(C)C)C(C#N)=C(N)Oc5[nH]nc(C)c54)c3)C2)o1 (centres unmarked) [KDG-0472]
≥ 20 min

Next compound up: Cc1n[nH]c2c1C(c1cc(C#C[C@H]3CC[C@@](C)(O)CC3)cc(CO)c1)(C(C)C)C(C#N)=C(N)O2 (some centres unmarked) [KDG-0270]
< 5 min
